Listed here: items and their measured PBM binding z-score.
Test system: RARg homodimer (NR concentration 270 nM)
experimentalDetails: PBM binding z-score (relative to random genomic background probes); higher = stronger binding; sequences stand for … in GC…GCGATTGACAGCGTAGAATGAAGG
metricName: PBM binding z-score

> print(dat)
                             seqstring                                  testedon           metricname  experimentalvalue
 1  TCTAGTTGGTCGAAGGTCACACACTCGAAATGCG  RARg homodimer (NR concentration 270 nM)  PBM binding z-score               3.86
 2  TCTAGTTGGTCAAGGAGGTCACACACGACGGGTA  RARg homodimer (NR concentration 270 nM)  PBM binding z-score               4.29
 3  AGCGAAAGGTCGTGAGGTGAGTATACAGAAAGGC  RARg homodimer (NR concentration 270 nM)  PBM binding z-score               3.87
 4  TCTGGGAGGACACGAAAGGTCAGAGCTCGACATC  RARg homodimer (NR concentration 270 nM)  PBM binding z-score               5.82
 5  GGAACGAGGGCAAGTGGATAGCAGAGTTTGATGG  RARg homodimer (NR concentration 270 nM)  PBM binding z-score               2.03
 6  ATCTCTAGGTAAGACTCAGCTCAGTGAAGAACGC  RARg homodimer (NR concentration 270 nM)  PBM binding z-score             0.0732
 7  CCTAGCAGGCCAAGGTCACTCAAGCATTTCGCTT  RARg homodimer (NR concentration 270 nM)  PBM binding z-score               3.92
 8  CCTACTGGGCCATCAGGCCATTGATATCAACGTT  RARg homodimer (NR concentration 270 nM)  PBM binding z-score              0.297
 9  CCTAGCAGGCCAATGTGGGTCACTCAAGGCTTGA  RARg homodimer (NR concentration 270 nM)  PBM binding z-score               1.02
10  ACAGACAGGGGAGTGAAGGTAACTCAGCTGGACG  RARg homodimer (NR concentration 270 nM)  PBM binding z-score              0.208
11  GTATCAAGGTGAATAGGTCGTTGATGAGTAGGCG  RARg homodimer (NR concentration 270 nM)  PBM binding z-score               1.78
12  CCGACTGGGGCATAAGGTTAGCATAAGCCAGCCC  RARg homodimer (NR concentration 270 nM)  PBM binding z-score               0.69
13  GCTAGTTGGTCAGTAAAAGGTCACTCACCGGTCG  RARg homodimer (NR concentration 270 nM)  PBM binding z-score               4.43
14  ACAGACAGGTGAGTTAAGGTAACTCAGCTGGACG  RARg homodimer (NR concentration 270 nM)  PBM binding z-score               0.59
15  CAAACTAGGTGAAGAGGTCAAAGTCCGCTTCCCG  RARg homodimer (NR concentration 270 nM)  PBM binding z-score               3.96
16  GCTCGGAGGACAACGTCAGAGCTTTGTCCGTAGA  RARg homodimer (NR concentration 270 nM)  PBM binding z-score              0.158
17  TCATATAGGTAAACAGGTGACAGTCCGTAAGTTA  RARg homodimer (NR concentration 270 nM)  PBM binding z-score              0.419
18  AGTCAAAGTTGACTAGGTAACGTAAGATTCAGCT  RARg homodimer (NR concentration 270 nM)  PBM binding z-score              0.771
19  ACTAGTTGGTCATCTGAGGTCACACACAATTCGG  RARg homodimer (NR concentration 270 nM)  PBM binding z-score               4.23
20  ACTAGTTGGTCAGCTGAGGTCATACACAATTCGG  RARg homodimer (NR concentration 270 nM)  PBM binding z-score               3.38
21  TCAGACAGGTGAAGCTAACTCAGGTACGCAGTCG  RARg homodimer (NR concentration 270 nM)  PBM binding z-score              0.351
22  CGTCAAAATTCAACTAAGGTAACGTAAAGCACGC  RARg homodimer (NR concentration 270 nM)  PBM binding z-score              0.586
23  CATACAGGGTCAGCTAGGCCAGAGTTGGGACGGC  RARg homodimer (NR concentration 270 nM)  PBM binding z-score               4.57
24  ATCTCTAGGTAGAGTTCAGTGAAAGATCGATAGA  RARg homodimer (NR concentration 270 nM)  PBM binding z-score               1.55
25  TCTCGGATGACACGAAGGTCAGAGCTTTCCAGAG  RARg homodimer (NR concentration 270 nM)  PBM binding z-score               2.31
26  TCGAGTTGGTCACGGAGGTCACACACGACGGGTA  RARg homodimer (NR concentration 270 nM)  PBM binding z-score               4.81

Measured values drawn from the supplement of paper PMC6555819 for this set.
